System: Haemophilus influenzae
protocol: Minimum inhibitory concentration against Haemophilus influenzae
Type: functional
measuredParameter: MIC (mg/L)

These recorded examples may help you get a feel for the data.
| compoundStructureString | MIC [mg/L] |
| --- | --- |
| Oc1nc2nonc2nc1-c1cccc(F)c1 | 1 |
| CN(C)c1ccc(-c2nc3nonc3nc2O)cc1 | 4 |
| O=[N+]([O-])c1cccc(-c2nc3nonc3nc2O)c1 | 1 |
| Oc1nc2nonc2nc1-c1cccc(Cl)c1 | 1 |

I. Oc1nc2nonc2nc1-c1ccccc1F
II. Oc1nc2nonc2nc1-c1ccccc1Cl
Ask | From the recorded data, which exceeds the other in MIC: I or II ? Write the label of whichever entry you select.
Reply | II

I. O=[N+]([O-])c1ccc(-c2nc3nonc3nc2O)cc1
II. Oc1nc2nonc2nc1-c1ccc(Br)cc1
Ask | Thinking about recorded MIC values, which is higher, I or II ? State the label of the item chosen.
Reply | I
(I: 8 mg/L, II: 1 mg/L)

----------
Tested on: Staphylococcus aureus
protocol: Minimum inhibitory concentration against Staphylococcus aureus
Format: functional
measuredParameter: MIC (µg/mL)

| compoundStructureString | measuredParameter | obsValue |
| --- | --- | --- |
| Oc1nc2nonc2nc1-c1cccc(F)c1 | MIC | 64 |

1. Oc1nc2nonc2nc1-c1ccc2c(c1)OCO2
2. O=[N+]([O-])c1cccc(-c2nc3nonc3nc2O)c1
Ask | // pick larger MIC from pair: 1 vs 2 When you have decided, please share the label of that item.
Reply | 1
(1: 64 µg/mL, 2: 32 µg/mL)

----------
Tested on: Haemophilus influenzae
protocol: Minimum inhibitory concentration against Haemophilus influenzae
Type: functional
measuredParameter: MIC (µg/mL)

Sample records with MIC:
| compoundStructureString | unitSpec | MIC |
| --- | --- | --- |
| Oc1nc2nonc2nc1-c1ccc(C2CCCCC2)cc1 | µg/mL | 16 |
| Oc1nc2nonc2nc1-c1ccc(Cl)cc1 | µg/mL | 1 |
| Oc1nc2nonc2nc1-c1ccc(Oc2ccccc2)cc1 | µg/mL | 8 |
| Oc1nc2nonc2nc1-c1cccc(C(F)(F)F)c1 | µg/mL | 2 |

a. COc1ccc(-c2nc3nonc3nc2O)cc1
b. Oc1nc2nonc2nc1-c1ccccc1Br
c. Oc1nc2nonc2nc1-c1ccc(N2CCCCC2)cc1
Ask | Arrange by MIC, high to low. Form entry: labels listed in requested order.
Reply | b, c, a

I. Oc1nc2nonc2nc1-c1cccc(Br)c1
II. Oc1nc2nonc2nc1-c1c[nH]c2ccccc12
III. Oc1nc2nonc2nc1-c1ccc(C(F)(F)F)cc1
Ask | # ascending order, key=MIC Please list the labels according to the requested order.
Reply | I, III, II
(I: 0.5 µg/mL, III: 4 µg/mL, II: 8 µg/mL)

a. COc1cc(-c2nc3nonc3nc2O)cc(OC)c1OC
b. Oc1nc2nonc2nc1-c1ccc(N2CCOCC2)cc1
c. Oc1nc2nonc2nc1-c1ccc2c(c1)OCO2
Ask | # rank by MIC, ascending (min first) Lab note: final answer is the ordered label list.
Reply | c, b, a

I. Oc1nc2nonc2nc1-c1ccccc1
II. Oc1nc2nonc2nc1-c1cccs1
Ask | I need your help: which of the pair I , II has higher MIC? Return value: the label identifying the chosen record.
Reply | I
